B1: POU domain, class 6, transcription factor 2, residues 609 to 663; numbered along this chain, P78424 (parent)
chain: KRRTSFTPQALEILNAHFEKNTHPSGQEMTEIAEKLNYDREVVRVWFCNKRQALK

Variants of: B1
experiment summary: abundance fitness (aPCA) (normalised: wild type 0, dead -1); higher = more abundant; growth selection in yeast, the domain comes from the species named
conditions: Homo sapiens
Please use the following abundance fitness ranges when assigning a class: bin 1 = under -0.3, bin 2 = from -0.3 up to -0.07, bin 3 = -0.07 and over

*Q* Could you place L14S in its proper category? Many thanks.
*A* bin 1

*Q* Category lookup for the variant I13A
*A* bin 3

*Q* Which category does the recorded abundance fitness put D39C in?
*A* bin 2

*Q* Any idea which band T22E is in?
*A* bin 2

*Q* Lab note: sort K35M into the matching abundance fitness band.
*A* bin 3

*Q* Returns: class label. Input: V45A
*A* bin 3

*Q* Record E34S — which class?
*A* bin 3

*Q* For the record R3G , report the class its abundance fitness corresponds to.
*A* bin 3

*Q* Which abundance fitness band matches L36M ?
*A* bin 2

*Q* Which class holds N15Y ?
*A* bin 1

*Q* Determine which band this variant sits in: P24M
*A* bin 1

*Q* Band for the recorded abundance fitness of L14A ?
*A* bin 1

*Q* Please indicate the class for R51N based on its abundance fitness.
*A* bin 2

*Q* For the record F6E , report the class its abundance fitness corresponds to.
*A* bin 2

*Q* State the class of the variant shown: E31C
*A* bin 1

*Q* For this variant, which bin applies? W46V
*A* bin 1
